- System: HT-29
- assayProcedure: Cytotoxic activity against HT-29 Colon carcinoma tumor cell lines.
- Assay type: functional, cell-based
- cond: Homo sapiens
measuredQuantity: pIC50
One number for each entry, as −log10 of the molar value.

Sample O=C(OCCS(=O)(=O)c1ccccc1)N1c2ccc(OCCO)cc2[C@@]23O[C@]24CCC[C@H]3C#C/C=C\C#C[C@H]14 — what was its pIC50?
5.80

====

- assayProcedure: Half life at 55 degree Centigrade
- Assay type: ADME
Assign half-life to each entry below.
Numbers only, in h.

>  <compound>
CC1=C(C)C(=O)C2=C(C#CCCCC(=O)C#C2)C1=O

>  <half-life [h]>
0.533

$$$$

Which measured half-life value corresponds to CC1=C(C)C(=O)C2=C(C#CCCCC(O)C#C2)C1=O (configuration not stated) ?
2.6

====

- Tested on: RPMI-8226
- assayProcedure: Cytotoxic activity against RPMI-8226 myeloma tumor cell lines.
- Format: functional, cell-based
- cond: Homo sapiens
measuredQuantity: IC50 (nM)
Give bare numbers, in nM.

Tell me reported IC50 for O=C(OCCS(=O)(=O)c1ccccc1)N1c2ccc(OCCO)cc2[C@@]23O[C@]24CCC[C@H]3C#C/C=C\C#C[C@H]14 , tested with RPMI-8226.
7.7

====

- assayProcedure: Half life at 110 degree Centigrade
- Format: ADME
measuredQuantity: half-life

Given the entry Cc1c(C)c(C(=O)OC(C)(C)C)c2c(c1C(=O)OC(C)(C)C)C#CCCCC(O)C#C2 (stereo unspecified) , report its measured half-life.
74 h

====

- Tested on: TCAF-DAX
- assayProcedure: Cytotoxic activity against TCAF-DAX T-cell leukemia tumor cell lines.
- Format: functional, cell-based
- cond: Homo sapiens
measuredQuantity: IC50 (nM)
One number for each entry, in nM.

Fill blank: measured IC50 of the compound O=C(OCCS(=O)(=O)c1ccccc1)N1c2ccc(OCCO)cc2[C@@]23O[C@]24CCC[C@H]3C#C/C=C\C#C[C@H]14 is ____.
1.7
